Hi there, I'd appreciate the recorded koff for every entry that follows.
# study target: T1, hIL-18Rα ECD-Fc fusion protein (human, UniProt Q13478 22-329)
# T1 construct: extracellular domain; captured on Protein A sensor
# T1 sequence (looked up): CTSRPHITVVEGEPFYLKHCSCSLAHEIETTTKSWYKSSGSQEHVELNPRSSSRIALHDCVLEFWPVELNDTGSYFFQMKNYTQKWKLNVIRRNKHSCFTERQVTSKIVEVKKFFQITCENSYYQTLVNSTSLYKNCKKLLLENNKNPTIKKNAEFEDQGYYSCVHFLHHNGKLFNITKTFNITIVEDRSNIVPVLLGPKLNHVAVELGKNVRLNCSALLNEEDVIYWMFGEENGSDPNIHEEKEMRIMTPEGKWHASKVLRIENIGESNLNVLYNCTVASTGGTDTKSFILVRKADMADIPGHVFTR
# run description: BLI (Octet RED96), hIL-18Rα ECD-Fc on Protein A sensor
Give bare numbers, in s⁻¹.

Worked examples, 2 binders total:
binder: IL-18 variant polypeptide M3 (ligand) YFPKLKSKLSVIRNLNDQVLFIDQGNRPLFEDMTDSDCRDNAPRTIFIISMYKWSHVRGMAVTISVKCEKISTLSCENKIISFKEMNPPDAIKDTKSDIIFFQYSVPGHDNKMQFESSSYEGYFLACEKERDLFKLILKKEDELGDRSIMFTVQNED
quantity unit: s⁻¹
koff: 0.0431

binder: IL-18 variant polypeptide M15 (ligand) YFPKLRSKLSVIRNLNDQVLFIDQGNRPLFEDMTDSDCRDNAPRTIFIISMYKSSYTRGMAVTISVKCEKISTLSCENKIISFKEMNPPDGIKDTKSDIIFFQRSVPGHDNKMQFESSSYEGYFLACEKERDLFKLILKKEDELGDRSIMFTVQNED
quantity unit: s⁻¹
koff: 0.0183

Then there is this binder:
Give reported koff value for IL-18 variant polypeptide M34 (ligand) YFPKLRSKLSVIRNLNDQVLFIDQGNRPLFEDMTDSDCRDNAPRTIFIISMYKHSRNRGMAVTISVKCEKISTLSCENKIISFKEMNPPDVIKDTKSDIIFFQESVPGHDNKMQFESSSYEGYFLACEKERDLFKLILKKEDELGDRSIMFTVQNED
0.0166

Just for reference, patent US20260092093A1 is where these values come from.
